Where do these numbers come from? They come from patent US20060110401A1.

Recorded pIC50 by entry
Biological target: HLA-DR13 (DRB1*1301) (human)
Experiment: competition binding
Conditions: chains peptide; modification not given
# pIC50 is unitless: minus log10 of the molar concentration; print number only

SSDLYLVTRHADVIPVRRRGDSRGSLL [13N 1127-1153] ... 6.52
AQGYKVLVLNPSVAATLGFGAYMSKAHGID [18N 1246-1275] ... 6.05

Lab note: next binder to report on.
The reported pIC50 of the binder GREILLGPADGMVSKGWRLLAPITAYAQQTR [8N 1007-1037] was 5.90
